Give vapor or sublimation pressure for every item shown.
# run_parameters: 310 K; Liquid; Gas chromatography
± gives the expanded uncertainty stated by the source.

### Prompt Field request: vapor or sublimation pressure | item: C=CC(C)(O)CC/C=C(/C)CCC=C(C)C (centres undefined) [(Z)-3,7,11-trimethyldodeca-1,6,10-trien-3-ol]
### Response 0.00032 ± 0.0001 kPa

### Prompt Field request: vapor or sublimation pressure | item: C[C@@H]1CC[C@H]2C(C)(C)[C@H]3C[C@@]12CC[C@@]3(C)O [(+)-cedrol]
### Response 0.00029 ± 0.0001 kPa

### Prompt Field request: vapor or sublimation pressure | item: C=CC(C)(O)CC/C=C(\C)CCC=C(C)C (centres undefined) [(E)-3,7,11-trimethyldodeca-1,6,10-trien-3-ol]
### Response 0.00024 ± 8e-05 kPa

### Prompt Field request: vapor or sublimation pressure | item: OC12CC3CC(CC(C3)C1)C2 [1-adamantanol]
### Response 0.0062 ± 0.0005 kPa

---

# run_parameters: 490 K; Liquid; Gas chromatography
Give vapor or sublimation pressure for every item shown.
Express your answer in kPa, writing the number without its unit.

### Prompt Field request: vapor or sublimation pressure | item: C=CC(C)(O)CC/C=C(\C)CCC=C(C)C (centres undefined) [(E)-3,7,11-trimethyldodeca-1,6,10-trien-3-ol]
### Response 18

### Prompt Field request: vapor or sublimation pressure | item: C=CC(C)(O)CC/C=C(/C)CCC=C(C)C (centres undefined) [(Z)-3,7,11-trimethyldodeca-1,6,10-trien-3-ol]
### Response 20

### Prompt Field request: vapor or sublimation pressure | item: OC12CC3CC(CC(C3)C1)C2
### Response 49

### Prompt Field request: vapor or sublimation pressure | item: C[C@@H]1CC[C@H]2C(C)(C)[C@H]3C[C@@]12CC[C@@]3(C)O [(+)-cedrol]
### Response 12

---

Give vapor or sublimation pressure for every item shown.
# run_parameters: 500 K; Liquid; Gas chromatography
Express your answer in kPa, writing the number without its unit.

### Prompt Field request: vapor or sublimation pressure | item: C=CC(C)(O)CC/C=C(\C)CCC=C(C)C (centres undefined) [(E)-3,7,11-trimethyldodeca-1,6,10-trien-3-ol]
### Response 24

### Prompt Field request: vapor or sublimation pressure | item: OC12CC3CC(CC(C3)C1)C2
### Response 62

### Prompt Field request: vapor or sublimation pressure | item: C=CC(C)(O)CC/C=C(/C)CCC=C(C)C (centres undefined) [(Z)-3,7,11-trimethyldodeca-1,6,10-trien-3-ol]
### Response 27

### Prompt Field request: vapor or sublimation pressure | item: C[C@@H]1CC[C@H]2C(C)(C)[C@H]3C[C@@]12CC[C@@]3(C)O [(+)-cedrol]
### Response 16

---

Give vapor or sublimation pressure for every item shown.
# run_parameters: 390 K; Liquid; Gas chromatography
Express your answer in kPa, writing the number without its unit.

### Prompt Field request: vapor or sublimation pressure | item: C[C@@H]1CC[C@H]2C(C)(C)[C@H]3C[C@@]12CC[C@@]3(C)O [(+)-cedrol]
### Response 0.19

### Prompt Field request: vapor or sublimation pressure | item: OC12CC3CC(CC(C3)C1)C2 [1-adamantanol]
### Response 1.5

### Prompt Field request: vapor or sublimation pressure | item: C=CC(C)(O)CC/C=C(/C)CCC=C(C)C (centres undefined) [(Z)-3,7,11-trimethyldodeca-1,6,10-trien-3-ol]
### Response 0.26

### Prompt Field request: vapor or sublimation pressure | item: C=CC(C)(O)CC/C=C(\C)CCC=C(C)C (centres undefined) [(E)-3,7,11-trimethyldodeca-1,6,10-trien-3-ol]
### Response 0.22

---

# run_parameters: 400 K; Liquid; Gas chromatography
measurement_name: vapor or sublimation pressure (kPa)
Express your answer in kPa, writing the number without its unit.

### Prompt Field request: vapor or sublimation pressure | item: C=CC(C)(O)CC/C=C(\C)CCC=C(C)C (centres undefined) [(E)-3,7,11-trimethyldodeca-1,6,10-trien-3-ol]
### Response 0.39

### Prompt Field request: vapor or sublimation pressure | item: C=CC(C)(O)CC/C=C(/C)CCC=C(C)C (centres undefined) [(Z)-3,7,11-trimethyldodeca-1,6,10-trien-3-ol]
### Response 0.46

### Prompt Field request: vapor or sublimation pressure | item: C[C@@H]1CC[C@H]2C(C)(C)[C@H]3C[C@@]12CC[C@@]3(C)O [(+)-cedrol]
### Response 0.33

### Prompt Field request: vapor or sublimation pressure | item: OC12CC3CC(CC(C3)C1)C2
### Response 2.3

---

Give vapor or sublimation pressure for every item shown.
# run_parameters: 330 K; Liquid; Gas chromatography
± gives the expanded uncertainty stated by the source.

### Prompt Field request: vapor or sublimation pressure | item: OC12CC3CC(CC(C3)C1)C2 [1-adamantanol]
### Response 0.035 ± 0.005 kPa

### Prompt Field request: vapor or sublimation pressure | item: C=CC(C)(O)CC/C=C(/C)CCC=C(C)C (centres undefined) [(Z)-3,7,11-trimethyldodeca-1,6,10-trien-3-ol]
### Response 0.0026 ± 0.0008 kPa

### Prompt Field request: vapor or sublimation pressure | item: C[C@@H]1CC[C@H]2C(C)(C)[C@H]3C[C@@]12CC[C@@]3(C)O [(+)-cedrol]
### Response 0.0022 ± 0.0007 kPa

### Prompt Field request: vapor or sublimation pressure | item: C=CC(C)(O)CC/C=C(\C)CCC=C(C)C (centres undefined) [(E)-3,7,11-trimethyldodeca-1,6,10-trien-3-ol]
### Response 0.0021 ± 0.0007 kPa

---

# run_parameters: 460 K; Liquid; Gas chromatography
measurement_name: vapor or sublimation pressure (kPa)
Express your answer in kPa, writing the number without its unit.

### Prompt Field request: vapor or sublimation pressure | item: C[C@@H]1CC[C@H]2C(C)(C)[C@H]3C[C@@]12CC[C@@]3(C)O [(+)-cedrol]
### Response 4.5

### Prompt Field request: vapor or sublimation pressure | item: C=CC(C)(O)CC/C=C(/C)CCC=C(C)C (centres undefined) [(Z)-3,7,11-trimethyldodeca-1,6,10-trien-3-ol]
### Response 7.2

### Prompt Field request: vapor or sublimation pressure | item: C=CC(C)(O)CC/C=C(\C)CCC=C(C)C (centres undefined) [(E)-3,7,11-trimethyldodeca-1,6,10-trien-3-ol]
### Response 6.3

### Prompt Field request: vapor or sublimation pressure | item: OC12CC3CC(CC(C3)C1)C2
### Response 22

---

Give vapor or sublimation pressure for every item shown.
# run_parameters: 410 K; Liquid; Gas chromatography
Express your answer in kPa, writing the number without its unit.

### Prompt Field request: vapor or sublimation pressure | item: C[C@@H]1CC[C@H]2C(C)(C)[C@H]3C[C@@]12CC[C@@]3(C)O [(+)-cedrol]
### Response 0.55

### Prompt Field request: vapor or sublimation pressure | item: OC12CC3CC(CC(C3)C1)C2
### Response 3.6

### Prompt Field request: vapor or sublimation pressure | item: C=CC(C)(O)CC/C=C(/C)CCC=C(C)C (centres undefined) [(Z)-3,7,11-trimethyldodeca-1,6,10-trien-3-ol]
### Response 0.79

### Prompt Field request: vapor or sublimation pressure | item: C=CC(C)(O)CC/C=C(\C)CCC=C(C)C (centres undefined) [(E)-3,7,11-trimethyldodeca-1,6,10-trien-3-ol]
### Response 0.67

---

# run_parameters: 440 K; Liquid; Gas chromatography
measurement_name: vapor or sublimation pressure (kPa)
Express your answer in kPa, writing the number without its unit.

### Prompt Field request: vapor or sublimation pressure | item: C=CC(C)(O)CC/C=C(\C)CCC=C(C)C (centres undefined) [(E)-3,7,11-trimethyldodeca-1,6,10-trien-3-ol]
### Response 2.8

### Prompt Field request: vapor or sublimation pressure | item: OC12CC3CC(CC(C3)C1)C2
### Response 11

### Prompt Field request: vapor or sublimation pressure | item: C=CC(C)(O)CC/C=C(/C)CCC=C(C)C (centres undefined) [(Z)-3,7,11-trimethyldodeca-1,6,10-trien-3-ol]
### Response 3.3

### Prompt Field request: vapor or sublimation pressure | item: C[C@@H]1CC[C@H]2C(C)(C)[C@H]3C[C@@]12CC[C@@]3(C)O [(+)-cedrol]
### Response 2.1

---

Give vapor or sublimation pressure for every item shown.
# run_parameters: 370 K; Liquid; Gas chromatography
± gives the expanded uncertainty stated by the source.
Reply with a number, then the unit it belongs to.

### Prompt Field request: vapor or sublimation pressure | item: C=CC(C)(O)CC/C=C(\C)CCC=C(C)C (centres undefined) [(E)-3,7,11-trimethyldodeca-1,6,10-trien-3-ol]
### Response 0.058 ± 0.018 kPa

### Prompt Field request: vapor or sublimation pressure | item: OC12CC3CC(CC(C3)C1)C2
### Response 0.51 ± 0.063 kPa

### Prompt Field request: vapor or sublimation pressure | item: C=CC(C)(O)CC/C=C(/C)CCC=C(C)C (centres undefined) [(Z)-3,7,11-trimethyldodeca-1,6,10-trien-3-ol]
### Response 0.071 ± 0.021 kPa

### Prompt Field request: vapor or sublimation pressure | item: C[C@@H]1CC[C@H]2C(C)(C)[C@H]3C[C@@]12CC[C@@]3(C)O [(+)-cedrol]
### Response 0.054 ± 0.017 kPa

Reference source for all entries: the NIST ThermoML archive (doi:10.1016/j.jct.2017.07.018)
